meta.source: PubChem BioAssay AID795

# Assay Name: activators of LNCaP prostate cell differentiation, primary screen, flow cytometry side scatter (AID 795);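 also: androgen-responsive LNCaP prostate cancer cells in charcoal-stripped serum medium; percent of cells past a gate set so DMSO wells show 10% shift; higher shift means more granular cells and more differentiation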
# Condition Set: 4 d, at 10 µM, stronger effect = higher value
The whole screen tested about 24,000 compounds, of which about 130 (0.54%) were called active. The sample holds actives, similar compounds and a random draw of the others, so the mix is not that of the screen.
Please enter 1 where side scatter shift is greater than or equal to 6%, and -1 where it is lower.

INSERT INTO measurements (molecule, label) VALUES
  ('Cc1nc(NC(=O)C23CCC(C)(C(=O)O2)C3(C)C)sc1C (configuration not stated)', -1),
  ('O=C(Nc1ccccc1C(F)(F)F)c1cc(-c2ccc(O)cc2)on1', -1),
  ('OCc1nc(CO)n(Cc2ccccc2)n1', 1),
  ('O=C(CSc1nc2[nH]ncc2c(=O)n1-c1ccccc1)N1CCCc2ccccc21', -1),
  ('CCOC(=O)c1cccc(NC(=O)CCc2c(C)nc3ncnn3c2C)c1', -1),
  ('CC1Cc2nc(SCC(=O)Nc3ccccc3F)n(C)c(=O)c2S1 (configuration not stated)', 1),
  ('COCCCNC(=O)c1ccc(CNS(=O)(=O)c2ccc(NC(C)=O)cc2)cc1', 1),
  ('CC12CN3CC(C)(CN(C1)C3c1ccc(Cl)cc1Cl)C2=O (configuration not stated)', 1),
  ('FC(F)Oc1ccccc1C1CC(c2ccc(Br)s2)Nc2ncnn21 (configuration not stated)', 1),
  ('Cn1c(=O)c2c(nc(N3CCCCCC3)n2CC(=O)c2ccc(Br)cc2)n(C)c1=O', 1);
